test system: narkotisierten Katze; experiment: Blood pressure lowering and positive inotropic effect in the anaesthetised cat; assay type: in vivo; details: 0,1 mg/kg i.v.; anaesthetised cats; mean of 3 cats
Recorded Metric: Wirkungsdauer (Halbwerts-zeit) (Minuten)
Record the value in Minuten, omitting the unit from your answer.

Give a short answer stating reported Wirkungsdauer (Halbwerts-zeit) for CC1CC(=O)NN=C1c1ccc2[nH]c(N3CCSCC3)nc2c1 (stereo not drawn) [E] .
10

Specify measured Wirkungsdauer (Halbwerts-zeit) for CC1CC(=O)NN=C1c1ccc2nc(-n3ccnc3)[nH]c2c1 (stereo not drawn) [F] .
8

Consider the molecule CC1CC(=O)NN=C1c1ccc2[nH]c(N3CCCC3)nc2c1 (stereo not drawn) [D] and give its recorded Wirkungsdauer (Halbwerts-zeit).
13

Provide Wirkungsdauer (Halbwerts-zeit) value for the following molecule: CC1CC(=O)NN=C1c1ccc2nc(N3CCNCC3)oc2c1 (stereo not drawn) [B]
12

Supply measured Wirkungsdauer (Halbwerts-zeit) of CC1CC(=O)NN=C1c1ccc2oc(-n3ccnc3)nc2c1 (stereo not drawn) [A] in your reply.
25

Give the reported value of Wirkungsdauer (Halbwerts-zeit) for this record: CCOC(=O)N1CCN(c2nc3ccc(C4=NNC(=O)CC4C)cc3o2)CC1 (stereo not drawn) [C]
12

The measured values listed here are drawn from patent EP0196005A1.
